Test system: Gerbillinae
Measurement Notes: Inhibition of GR-73632-induced foot tapping in gerbils at 1 mg/kg, iv
Format: functional
Label N if inhibition in vivo at 1 mg/kg falls below 60%; label Y in every other case.

Compound Structure: C[C@@H](O[C@@H]1CN(C(=O)N2CCOCC2)C[C@H]1c1ccccc1)c1cc(C(F)(F)F)cc(C(F)(F)F)c1
Group Label: N

Compound Structure: C[C@@H](O[C@@H]1CN(C(=O)NC(C)(C)C)C[C@H]1c1ccc(F)cc1)c1cc(C(F)(F)F)cc(C(F)(F)F)c1
Group Label: N

Compound Structure: CC(C)NC(=O)N1C[C@@H](O[C@H](C)c2cc(C(F)(F)F)cc(C(F)(F)F)c2)[C@H](c2ccc(F)cc2)C1
Group Label: Y

Compound Structure: C[C@@H](O[C@@H]1CN(C2=CC(=O)CC2)C[C@H]1c1ccc(F)cc1)c1cc(C(F)(F)F)cc(C(F)(F)F)c1
Group Label: Y

----------
Measurement Notes: Volume of distribution in rhesus monkey
Type: ADME, organism-based, Macaca mulatta
Experimental Context: in vivo

Compound Structure: C[C@@H](O[C@@H]1CN(C2=CC(=O)CC2)C[C@H]1c1ccc(F)cc1)c1cc(C(F)(F)F)cc(C(F)(F)F)c1
Readout Unit: L/kg
Vd: 2.3

----------
Measurement Notes: Plasma clearance in rat
Assay type: ADME, organism-based

Compound Structure: C[C@@H](O[C@@H]1CN(C2=CC(=O)CC2)C[C@H]1c1ccc(F)cc1)c1cc(C(F)(F)F)cc(C(F)(F)F)c1
clearance: 19.6 mL/min/kg

----------
Entries below carry reported pIC50 on Substance-P receptor (Homo sapiens).
Sequence (P25103 whole entry): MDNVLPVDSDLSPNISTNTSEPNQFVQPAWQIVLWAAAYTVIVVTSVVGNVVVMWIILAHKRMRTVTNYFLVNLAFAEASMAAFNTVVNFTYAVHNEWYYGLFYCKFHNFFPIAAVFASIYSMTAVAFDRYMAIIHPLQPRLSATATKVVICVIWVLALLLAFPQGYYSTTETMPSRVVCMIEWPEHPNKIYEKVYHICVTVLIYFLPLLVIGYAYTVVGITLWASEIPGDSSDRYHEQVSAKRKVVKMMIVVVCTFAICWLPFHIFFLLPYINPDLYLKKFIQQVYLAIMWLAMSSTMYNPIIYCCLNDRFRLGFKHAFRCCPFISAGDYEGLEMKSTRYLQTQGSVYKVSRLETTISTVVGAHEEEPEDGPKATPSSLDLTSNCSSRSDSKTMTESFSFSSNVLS
pIC50: −log10 of the molar value.
Reported Metric: pIC50

Compound: C[C@@H](O[C@@H]1CN(C2=CC(=O)N(C)C2)C[C@H]1c1ccc(F)cc1)c1cc(C(F)(F)F)cc(C(F)(F)F)c1
Reading: 9.92
--
Compound: CC1CC(=O)C=C1N1C[C@@H](O[C@H](C)c2cc(C(F)(F)F)cc(C(F)(F)F)c2)[C@H](c2ccc(F)cc2)C1 (mixture of isomers)
Reading: 9.96
--
Compound: C[C@@H](O[C@@H]1CN(C2=CC(=O)C(C)(C)CC2)C[C@H]1c1ccccc1)c1cc(C(F)(F)F)cc(C(F)(F)F)c1
Reading: 9.74
--
Compound: C[C@@H](O[C@@H]1CN(C=O)C[C@H]1c1ccc(F)cc1)c1cc(C(F)(F)F)cc(C(F)(F)F)c1
Reading: 9.62
--
Compound: CCNC(=O)N1C[C@@H](O[C@H](C)c2cc(C(F)(F)F)cc(C(F)(F)F)c2)[C@H](c2ccc(F)cc2)C1
Reading: 10.00
--
Compound: CCC(=O)N1C[C@@H](O[C@H](C)c2cc(C(F)(F)F)cc(C(F)(F)F)c2)[C@H](c2ccc(F)cc2)C1
Reading: 10.05
--
Compound: CC1=C(N2C[C@@H](O[C@H](C)c3cc(C(F)(F)F)cc(C(F)(F)F)c3)[C@H](c3ccc(F)cc3)C2)CCC1=O
Reading: 9.89
--
Compound: CNC(=O)N1C[C@@H](O[C@H](C)c2cc(C(F)(F)F)cc(C(F)(F)F)c2)[C@H](c2ccc(F)cc2)C1
Reading: 9.96
--
Compound: C[C@@H](O[C@@H]1CN(C(=O)NCc2cnn[nH]2)C[C@H]1c1ccc(F)cc1)c1cc(C(F)(F)F)cc(C(F)(F)F)c1
Reading: 9.24
--
Compound: C[C@@H](O[C@@H]1CN(C2=CC(=O)C(O)C2)C[C@H]1c1ccc(F)cc1)c1cc(C(F)(F)F)cc(C(F)(F)F)c1 (single isomer, unassigned; diastereomer A)
Reading: 9.66
--
Compound: C[C@@H](O[C@@H]1CN(C2=CC(=O)CC2)C[C@H]1c1ccc(F)cc1)c1cc(C(F)(F)F)cc(C(F)(F)F)c1
Reading: 9.96
--
Compound: CC1CC(N2C[C@@H](O[C@H](C)c3cc(C(F)(F)F)cc(C(F)(F)F)c3)[C@H](c3ccc(F)cc3)C2)=CC1=O (stereo in doubt)
Reading: 10.05
--
Compound: CC(=O)N1CCC(C(=O)N2C[C@@H](O[C@H](C)c3cc(C(F)(F)F)cc(C(F)(F)F)c3)[C@H](c3ccc(F)cc3)C2)CC1
Reading: 10.15
--
Compound: C[C@@H](O[C@@H]1CN(C(=O)[C@@H]2CCC(=O)N2C)C[C@H]1c1ccc(F)cc1)c1cc(C(F)(F)F)cc(C(F)(F)F)c1
Reading: 9.92
